So I've got a bunch of compounds here, and I need their melting point values.

Asked: Record request: melting point value, item Cc1c(C(=O)NC23CC4CC(CC(C4)C2)C3)ncn1-c1ccccc1 [Compound 2]
Given back: 214 to 219 °C

Asked: Request the reported melting point associated with Cc1nc(C(=O)NC2C3CC4CC(C3)CC2C4)c(C)n1-c1ccccc1 (stereo not shown) [Compound 49]
Given back: 245 to 247 °C

Asked: Which value of melting point has been reported for Cc1c(C(=O)N[C@H]2C(C)(C)[C@H]3CC[C@]2(C)C3)ncn1-c1ccccc1 in the records?
Given back: 149 to 152 °C

Asked: State the recorded melting point for this entry: Cc1nc(C(=O)NC23CC4CC(CC2C4)C3)c(C)n1-c1ccccc1
Given back: 147 to 150 °C

Asked: Data request, read-out melting point, for Cc1nc(C(=O)Nc2cccc(Cl)c2Cl)c(C)n1-c1ccccc1 [Compound 65]
Given back: 127 to 129 °C

Asked: Quick one: melting point of Cc1c(C(=O)NCC2CCC3C(C)(C)C34CC24)ncn1CCCNS(C)(=O)=O (stereo not shown) [Compound 22] ?
Given back: 84 to 108 °C

Asked: Would you mind telling me what melting point value was observed for Cc1nc(C(=O)Nc2cccc3ncccc23)c(C)n1-c1ccccc1 [Compound 46] ?
Given back: 139 to 141 °C

Asked: Fill blank: measured melting point of the compound Cc1nc(C(=O)NC23CC4CC(CC(O)(C4)C2)C3)c(C)n1-c1ccccc1 [Compound 48] is ____.
Given back: 215 to 220 °C

Asked: Endpoint output: melting point of Cc1c(C(=O)NC23CC4CC(CC(C4)C2)C3)nc(C(F)(F)F)n1-c1ccccc1 [Compound 64] . Value?
Given back: 170 to 172 °C

Asked: If you can, please state the reported melting point value of Cc1nc(C(=O)NCC2CCC3C(C)(C)C34CC24)cn1-c1ccccc1 (stereo not shown) [Compound 9] .
Given back: 124 to 127 °C

Asked: # lookup: melting point of O=C(NC12CC3CC(CC(C3)C1)C2)c1ncn(-c2ccccc2)c1Br [Compound 27]
Given back: 229 to 232 °C

Asked: Suppose we examine the compound O=C(NC1C2CC3CC(C2)CC1C3)c1cn(-c2ccccc2)cn1 (stereo not shown) [Compound 7] ; what melting point value has been reported?
Given back: 232 to 234 °C

Asked: # input compound: Cc1nc(C(=O)NC23CC4CC(CC(C4)C2)C3)c(C)n1-c1ccc2c(c1)OCCO2.Cl ; wanted: its melting point
Given back: 221 to 223 °C

Asked: Fill in: melting point of Cc1nc(C(=O)N[C@@H]2C(C)(C)C3CC[C@@]2(C)C3)c(C)n1-c1ccccc1 is ___
Given back: 130 to 132 °C

Asked: # melting point lookup, item Cc1c(C(=O)NC23CC4CC(CC(C4)C2)C3)ncn1Cc1ccccc1
Given back: 182 to 184 °C

Asked: Which melting point value is on record for Cc1nc(C(=O)Nc2cccc3ccccc23)c(C)n1-c1ccccc1.Cl ?
Given back: 177 to 179 °C

Asked: Which value of melting point has been reported for Cc1c(C(=O)Nc2cccc3ccccc23)ncn1-c1ccccc1 in the records?
Given back: 167 to 169 °C

Asked: Which melting point reading was recorded for the compound CCCCc1c(C(=O)NC23CC4CC(CC(C4)C2)C3)nc(C)n1-c1ccccc1 ?
Given back: 171 to 172 °C

Asked: For the compound COc1cccc(-n2c(C)nc(C(=O)NCC3CCC4C(C)(C)C45CC35)c2C)c1 (stereo not shown) [Compound 12] , what melting point is on record?
Given back: 153 to 155 °C

* * *

Consider the following compounds; for each one, report its melting point.

Asked: melting point for O=C(NC12CC3CC(CC(C3)C1)C2)c1nc(Cl)n(-c2ccccc2)c1Cl ?
Given back: 172 to 173 °C

Asked: Query: melting point; subject: Cc1c(C(=O)N[C@H]2C(C)(C)[C@H]3CC[C@]2(C)C3)ncn1CCCNS(C)(=O)=O
Given back: 149 to 156 °C

Asked: May I ask what melting point has been recorded for CCc1nc(C(=O)Nc2cccc3ccccc23)c(CC)n1-c1ccccc1 ?
Given back: 123 to 125 °C

Asked: Given the entry O=C(NC12CC3CC(CC(C3)C1)C2)c1nc(Br)n(-c2ccccc2)c1Br , report its measured melting point.
Given back: 228 to 231 °C

Asked: Form field: reported melting point of Cc1nc(C(=O)NCc2ccccc2C(F)(F)F)c(C)n1-c1ccccc1
Given back: 76 to 79 °C

Asked: Could you tell me which melting point is on file for Cc1c(C(=O)N[C@H]2C[C@H]3CC[C@]2(C)C3(C)C)ncn1-c1ccccc1 ?
Given back: 209 to 212 °C

Asked: Reported melting point for O=C(NC12CC3CC(CC(C3)C1)C2)c1cn(-c2ccccc2)cn1 : what is it?
Given back: 198 to 200 °C

Asked: What value of measured melting point is listed for Cc1nc(C(=O)NC23CC4CC(CC(C4)C2)C3)cn1-c1ccccc1 ?
Given back: 207 to 210 °C

Asked: Which melting point value belongs to Cc1nc(C(=O)NN2CCCCC2)c(C)n1-c1ccccc1 ?
Given back: 117 to 118 °C

Asked: Suppose we examine the compound Cc1nc(C(=O)Nc2ccc(C#N)c3ccccc23)c(C)n1-c1ccccc1 ; what melting point value has been reported?
Given back: 241.5 °C

Asked: Which melting point value is on record for Cc1nc(C(=O)Nc2ccnc3cc(C(F)(F)F)ccc23)c(C)n1-c1ccccc1 ?
Given back: 198.5 °C

* * *

Target: human cannabinoid CB2 receptor (Homo sapiens)
Construct: expressed in transfected cells; host or cells: Chinese hamster ovary (CHO) cells, membrane preparation
Sequence (P34972 whole entry): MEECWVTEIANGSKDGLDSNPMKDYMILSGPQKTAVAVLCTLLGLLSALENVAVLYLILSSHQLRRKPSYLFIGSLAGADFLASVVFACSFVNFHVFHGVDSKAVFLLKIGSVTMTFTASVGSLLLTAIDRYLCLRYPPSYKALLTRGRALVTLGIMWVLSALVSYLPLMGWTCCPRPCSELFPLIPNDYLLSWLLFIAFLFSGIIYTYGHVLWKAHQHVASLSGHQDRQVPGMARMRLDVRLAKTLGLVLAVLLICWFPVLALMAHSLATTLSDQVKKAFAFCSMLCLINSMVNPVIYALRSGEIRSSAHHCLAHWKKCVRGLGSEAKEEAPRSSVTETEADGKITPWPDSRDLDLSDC
Experiment: In vitro affinity for cannabinoid-CB2 receptors ([3H]CP-55,940 radioligand binding, CHO cell membranes)
pKi: −log10 of the molar value.
Given measured pKi, output Satisfied if it is greater than or equal to 8 and Not satisfied if not.

Asked: Please tell me: is the compound COC(=O)[C@H](Cc1ccccc1)NC(=O)c1cn(CCOc2ccccc2)cn1 [BMS-I, reference compound] at or over 8 in terms of pKi?
Given back: Not satisfied

Asked: Entry Cc1nc(C(=O)NC2CCCCCCC2)c(C)n1-c1ccccc1 : is its pKi no less than 8?
Given back: Satisfied

Asked: Dear colleague, could you confirm whether COC(=O)[C@H](Cc1ccccc1)NC(=O)c1cn(CCN2CCOCC2)cn1 [BMS-II, reference compound] has pKi at or above 8?
Given back: Not satisfied

Asked: Could you verify whether the entry Cc1nc(C(=O)NC23CC4CC(CC(C4)C2)C3)c(C)n1-c1ccccc1 shows pKi of no less than 8?
Given back: Satisfied

Asked: Check the entry CCc1c(C(=O)NC23CC4CC(CC(C4)C2)C3)nc(C)n1-c1ccccc1 : does pKi equal or exceed 8?
Given back: Satisfied

* * *

Target: human cannabinoid CB2 receptor (Homo sapiens)
Construct: expressed in transfected cells; host or cells: Chinese hamster ovary (CHO) cells, membrane preparation
Experiment: In vitro affinity for cannabinoid-CB2 receptors ([3H]CP-55,940 radioligand binding, CHO cell membranes)
For each of the compounds below, state its Ki.
Report the value in nM with no unit label.

Asked: Sample Cc1nc(C(=O)NC23CC4CC(CC(C4)C2)C3)c(C)n1C1CCCCC1 [Compound 14] — what was its Ki?
Given back: 6.31

Asked: I am curious: what Ki value has been reported for Cc1nc(C(=O)NC2C3CC4CC(C3)CC2C4)c(C)n1-c1ccccc1 (stereo not drawn) [Compound 49] ?
Given back: 2.51

Asked: I would be grateful if you could share the reported Ki for CCCCCn1cnc(C(=O)N[C@@H](Cc2ccccc2)C(=O)OC)c1 [BMS-III, reference compound] .
Given back: 63.1

* * *

Target: human cannabinoid CB1 receptor (Homo sapiens, UniProt P21554)
Construct: expressed in transfected cells; host or cells: Chinese hamster ovary (CHO) cells, membrane preparation
Sequence (P21554 whole entry): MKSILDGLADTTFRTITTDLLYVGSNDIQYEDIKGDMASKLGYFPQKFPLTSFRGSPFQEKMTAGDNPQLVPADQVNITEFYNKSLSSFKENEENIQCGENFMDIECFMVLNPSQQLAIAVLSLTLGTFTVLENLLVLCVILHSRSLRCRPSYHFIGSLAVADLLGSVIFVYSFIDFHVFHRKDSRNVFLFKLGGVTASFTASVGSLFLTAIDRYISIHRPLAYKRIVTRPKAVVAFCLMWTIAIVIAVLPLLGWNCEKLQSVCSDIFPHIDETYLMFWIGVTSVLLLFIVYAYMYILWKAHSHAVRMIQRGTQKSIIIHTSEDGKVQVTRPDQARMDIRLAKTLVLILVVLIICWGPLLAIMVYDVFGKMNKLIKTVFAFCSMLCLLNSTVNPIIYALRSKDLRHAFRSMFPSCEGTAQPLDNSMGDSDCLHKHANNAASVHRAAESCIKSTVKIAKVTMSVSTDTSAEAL
Test: In vitro affinity for cannabinoid-CB1 receptors ([3H]CP-55,940 radioligand binding, CHO cell membranes)
pKi: −log10 of the molar value.
Task for the reader: assign each of the following compounds its reported pKi.

Asked: Lab request: please report pKi under test system human cannabinoid CB1 receptor (Homo sapiens, UniProt P21554) for Cc1nc(C(=O)NC23CC4CC(CC(C4)C2)C3)c(C)n1C1CCCCC1
Given back: < 6.00

Asked: // fetch human cannabinoid CB1 receptor (Homo sapiens, UniProt P21554) pKi for Cc1nc(C(=O)NC2C3CC4CC(C3)CC2C4)c(C)n1-c1ccccc1 (stereo not drawn)
Given back: < 6.00

Asked: Notebook: pull reported pKi for human cannabinoid CB1 receptor (Homo sapiens, UniProt P21554), entry Cc1nc(C(=O)NC23CC4CC(CC(C4)C2)C3)c(C)n1-c1ccccc1
Given back: < 6.00

* * *

Target: human cannabinoid CB2 receptor (Homo sapiens)
Construct: expressed in transfected cells; host or cells: Chinese hamster ovary (CHO) cells, membrane preparation
Assay: In vitro affinity for cannabinoid-CB2 receptors ([3H]CP-55,940 radioligand binding, CHO cell membranes)
Assign Ki to each entry below.
Numeric only. Scale: nM

Asked: # query: Ki of entry CCc1nc(C(=O)NC23CC4CC(CC(C4)C2)C3)cn1-c1ccccc1 [Compound 20]
Given back: 10

Asked: Recorded Ki for Cc1nc(C(=O)NC23CC4CC(CC(C4)C2)C3)c(Br)n1-c1ccccc1 [Compound 33A] , please?
Given back: 6.31

Asked: Quick one: Ki for Cc1nc(C(=O)NC23CC4CC(CC(C4)C2)C3)c(Cl)n1-c1ccccc1 [Compound 33] ?
Given back: 7.94

Source of measurements: patent US8937184B2
